# PROTOCOL_NOTES: In vivo localization (biodistribution) in athymic female nude mice bearing intraperitoneal MCF-7 tumors
# Set-up: species or system athymic female NCR-Nu Mice
# EXPERIMENTAL_CONTEXT: mouse, in vivo, ip, Fat, 10-12 hours, tail vein, intraperitoneal MCF-7, mean, n = 5; read-out: Percent Injected Dose/Gram, fat
ASSAY_ENDPOINT: tissue uptake

> print(dat)
                               given.smiles  assay.endpoint      result
1  CC[C@H]1C[C@@]2(C)[C@@H](CC[C@@]2(O)/C=C\[125I])[C@@H]2CCc3cc(O)ccc3[C@@H]12   tissue uptake  0.67 %ID/g

---

# PROTOCOL_NOTES: In vivo localization (biodistribution) in athymic female nude mice bearing intraperitoneal MCF-7 tumors
# Parameters: species or system athymic female NCR-Nu Mice
# EXPERIMENTAL_CONTEXT: mouse, in vivo, ip, Fat, 24 hours, tail vein, intraperitoneal MCF-7, mean, n = 5; read-out: Percent Injected Dose/Gram, fat
ASSAY_ENDPOINT: tissue uptake at 24 h (%ID/g)

> print(dat)
                               given.smiles  result
1  CC[C@H]1C[C@@]2(C)[C@@H](CC[C@@]2(O)/C=C\[125I])[C@@H]2CCc3cc(O)ccc3[C@@H]12    0.12

---

# PROTOCOL_NOTES: In vivo localization (biodistribution) in athymic female nude mice bearing subcutaneous MCF-7 tumor xenografts
# Set-up: species or system athymic female NCR-Nu Mice
# EXPERIMENTAL_CONTEXT: mouse, mcf-7 tumor, sc; Tumor, 2 hours, tail vein, subcutaneous MCF-7, mean, n = 5; read-out: Percent Injected Dose/Gram, tumor
ASSAY_ENDPOINT: tissue uptake at 2 h (%ID/g)

> print(dat)
                               given.smiles        assay.endpoint  result
1  CC[C@H]1C[C@@]2(C)[C@@H](CC[C@@]2(O)/C=C\[125I])[C@@H]2CCc3cc(O)ccc3[C@@H]12  tissue uptake at 2 h    1.15

---

# PROTOCOL_NOTES: In vivo localization (biodistribution) in athymic female nude mice bearing subcutaneous MCF-7 tumor xenografts
# Design: species or system athymic female NCR-Nu Mice
# EXPERIMENTAL_CONTEXT: mouse, sc; Muscle, 2 hours, tail vein, subcutaneous MCF-7, mean, n = 5; read-out: Percent Injected Dose/Gram, muscle
ASSAY_ENDPOINT: tissue uptake at 2 h (%ID/g)

> print(dat)
                               given.smiles  result
1  CC[C@H]1C[C@@]2(C)[C@@H](CC[C@@]2(O)/C=C\[125I])[C@@H]2CCc3cc(O)ccc3[C@@H]12    0.56

---

# PROTOCOL_NOTES: In vivo localization (biodistribution) in athymic female nude mice bearing intraperitoneal MCF-7 tumors
# Set-up: species or system athymic female NCR-Nu Mice
# EXPERIMENTAL_CONTEXT: mouse, in vivo, ip, Percent Injected Dose/Gram, liver
ASSAY_ENDPOINT: tissue uptake at 48 h (%ID/g)

> print(dat)
                               given.smiles  result
1  CC[C@H]1C[C@@]2(C)[C@@H](CC[C@@]2(O)/C=C\[125I])[C@@H]2CCc3cc(O)ccc3[C@@H]12    0.44
